Target: human α4β7 integrin (Homo sapiens, UniProt P13612+P26010)
Sequence (P13612 34-1032): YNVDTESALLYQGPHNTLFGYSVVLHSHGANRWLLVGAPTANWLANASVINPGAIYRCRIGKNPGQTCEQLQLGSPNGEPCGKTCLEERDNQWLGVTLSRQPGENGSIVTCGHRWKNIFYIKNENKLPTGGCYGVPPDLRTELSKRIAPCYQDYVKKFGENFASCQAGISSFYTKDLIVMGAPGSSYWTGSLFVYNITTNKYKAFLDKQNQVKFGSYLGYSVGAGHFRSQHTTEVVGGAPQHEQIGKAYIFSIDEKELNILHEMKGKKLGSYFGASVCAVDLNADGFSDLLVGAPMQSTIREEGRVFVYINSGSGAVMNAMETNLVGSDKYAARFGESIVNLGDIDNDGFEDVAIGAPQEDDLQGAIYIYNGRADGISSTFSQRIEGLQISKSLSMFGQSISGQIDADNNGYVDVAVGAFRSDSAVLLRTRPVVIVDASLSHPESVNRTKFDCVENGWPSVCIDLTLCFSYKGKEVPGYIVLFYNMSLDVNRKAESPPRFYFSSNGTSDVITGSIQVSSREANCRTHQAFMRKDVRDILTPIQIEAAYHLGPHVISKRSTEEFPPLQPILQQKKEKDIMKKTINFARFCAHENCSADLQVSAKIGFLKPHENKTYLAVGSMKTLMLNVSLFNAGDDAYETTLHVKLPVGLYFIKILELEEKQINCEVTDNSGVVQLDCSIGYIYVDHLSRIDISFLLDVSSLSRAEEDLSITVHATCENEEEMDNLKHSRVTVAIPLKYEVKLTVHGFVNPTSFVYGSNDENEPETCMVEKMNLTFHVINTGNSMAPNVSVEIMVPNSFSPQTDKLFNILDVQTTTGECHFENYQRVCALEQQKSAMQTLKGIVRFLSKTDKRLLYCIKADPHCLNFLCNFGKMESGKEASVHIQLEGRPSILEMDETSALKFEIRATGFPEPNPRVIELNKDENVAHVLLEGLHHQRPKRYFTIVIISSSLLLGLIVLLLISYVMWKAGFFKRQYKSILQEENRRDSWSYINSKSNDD
Sequence (P26010 20-798): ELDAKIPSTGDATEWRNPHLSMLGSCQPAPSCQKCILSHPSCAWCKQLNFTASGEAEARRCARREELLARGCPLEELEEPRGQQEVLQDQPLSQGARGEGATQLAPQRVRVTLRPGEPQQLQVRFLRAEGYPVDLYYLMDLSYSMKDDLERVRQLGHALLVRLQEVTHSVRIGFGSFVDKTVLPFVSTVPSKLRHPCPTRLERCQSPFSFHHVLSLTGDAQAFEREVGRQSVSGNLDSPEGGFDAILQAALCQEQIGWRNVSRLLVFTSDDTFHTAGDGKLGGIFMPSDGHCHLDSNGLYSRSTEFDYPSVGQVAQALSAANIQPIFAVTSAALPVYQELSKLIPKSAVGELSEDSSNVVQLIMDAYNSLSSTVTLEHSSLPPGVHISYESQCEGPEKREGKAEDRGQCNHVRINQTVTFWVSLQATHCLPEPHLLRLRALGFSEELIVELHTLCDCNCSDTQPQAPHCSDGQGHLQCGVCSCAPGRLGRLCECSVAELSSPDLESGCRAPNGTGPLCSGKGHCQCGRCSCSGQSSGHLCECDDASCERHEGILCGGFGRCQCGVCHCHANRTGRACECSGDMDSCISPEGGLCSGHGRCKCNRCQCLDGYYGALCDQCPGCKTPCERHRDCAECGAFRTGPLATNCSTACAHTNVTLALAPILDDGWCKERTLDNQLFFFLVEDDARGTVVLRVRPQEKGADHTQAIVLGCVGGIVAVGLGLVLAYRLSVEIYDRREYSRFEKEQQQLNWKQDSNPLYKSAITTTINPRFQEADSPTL
Assay: α4β7-K562 Cell Adhesion Assay (α4β7 Mediated Adhesion/MAdCAM-1)
Conditions: K562 cells expressing human α4β7 adhering to FLAG-hMAdCAM-1, 1 mM Mn2+
pIC50: −log10 of the molar value.

>  <Compound>
COc1cnn(C)c(=O)c1-c1ccc(C[C@H](NC(=O)N(C)C)C(=O)O)cc1 [Cpd 19]

>  <Test Target>
human α4β7 integrin (Homo sapiens, UniProt P13612+P26010)

>  <pIC50>
5.81

$$$$
>  <Compound>
COc1cnn(C)c(=O)c1-c1ccc(C[C@H](NC(=O)N(CCO)C2CCCCC2)C(=O)O)cc1 [Cpd 17]

>  <Test Target>
human α4β7 integrin (Homo sapiens, UniProt P13612+P26010)

>  <pIC50>
6.55

$$$$
>  <Compound>
CC#CCN(Cc1ccco1)C(=O)N[C@@H](Cc1ccc(-c2c(OC)cnn(C)c2=O)cc1)C(=O)O [Cpd 31]

>  <Test Target>
human α4β7 integrin (Homo sapiens, UniProt P13612+P26010)

>  <pIC50>
6.38

$$$$
>  <Compound>
COc1cnn(C)c(=O)c1-c1ccc(C[C@H](NC(=O)N(C)c2ccccn2)C(=O)O)cc1 [Cpd 54]

>  <Test Target>
human α4β7 integrin (Homo sapiens, UniProt P13612+P26010)

>  <pIC50>
6.06

$$$$
>  <Compound>
COc1cccc2c1OCCCN(C(=O)N[C@@H](Cc1ccc(-c3c(OC)cnn(C)c3=O)cc1)C(=O)O)C2 [Cpd 32]

>  <Test Target>
human α4β7 integrin (Homo sapiens, UniProt P13612+P26010)

>  <pIC50>
6.37

$$$$
>  <Compound>
COc1cnn(C)c(=O)c1-c1ccc(C[C@H](NC(=O)N(Nc2ccccc2)c2ccccc2)C(=O)O)cc1 [Cpd 46]

>  <Test Target>
human α4β7 integrin (Homo sapiens, UniProt P13612+P26010)

>  <pIC50>
6.24

$$$$
>  <Compound>
COc1cnn(C)c(=O)c1-c1ccc(C[C@H](NC(=O)N(C)Cc2cnn(-c3ccccc3)c2)C(=O)O)cc1 [Cpd 29]

>  <Test Target>
human α4β7 integrin (Homo sapiens, UniProt P13612+P26010)

>  <pIC50>
6.16

$$$$
>  <Compound>
COc1cnn(C)c(=O)c1-c1ccc(C[C@H](NC(=O)N(C(C)C)C2CCCCC2)C(=O)O)cc1 [Cpd 33]

>  <Test Target>
human α4β7 integrin (Homo sapiens, UniProt P13612+P26010)

>  <pIC50>
6.51

$$$$
>  <Compound>
COc1cnn(C)c(=O)c1-c1ccc(C[C@H](NC(=O)N2c3ccc(F)cc3CCC2C)C(=O)O)cc1 (mixture of isomers) [Cpd 53]

>  <Test Target>
human α4β7 integrin (Homo sapiens, UniProt P13612+P26010)

>  <pIC50>
6.89

$$$$
>  <Compound>
COc1cnn(C)c(=O)c1-c1ccc(C[C@H](NC(=O)N2CCN(c3ncc(C(F)(F)F)cc3Cl)CC2)C(=O)O)cc1 [Cpd 24]

>  <Test Target>
human α4β7 integrin (Homo sapiens, UniProt P13612+P26010)

>  <pIC50>
6.41

$$$$
>  <Compound>
COc1cnn(C)c(=O)c1-c1ccc(C[C@H](NC(=O)N(Cc2ccccc2)c2ccccc2)C(=O)O)cc1 [Cpd 48]

>  <Test Target>
human α4β7 integrin (Homo sapiens, UniProt P13612+P26010)

>  <pIC50>
7.17

$$$$
>  <Compound>
COc1cnn(C)c(=O)c1-c1ccc(C[C@H](NC(=O)N(C)c2ccccc2C(F)(F)F)C(=O)O)cc1 [Cpd 52]

>  <Test Target>
human α4β7 integrin (Homo sapiens, UniProt P13612+P26010)

>  <pIC50>
7.43

$$$$
>  <Compound>
COc1cnn(C)c(=O)c1-c1ccc(C[C@H](NC(=O)N(Cc2ccccc2)C(C)C)C(=O)O)cc1 [Cpd 27]

>  <Test Target>
human α4β7 integrin (Homo sapiens, UniProt P13612+P26010)

>  <pIC50>
6.66

$$$$
>  <Compound>
COc1cnn(C)c(=O)c1-c1ccc(C[C@H](NC(=O)N2CCC(O)C2)C(=O)O)cc1 (mixture of isomers) [Cpd 6]

>  <Test Target>
human α4β7 integrin (Homo sapiens, UniProt P13612+P26010)

>  <pIC50>
6.42

$$$$
>  <Compound>
COc1cnn(CCO)c(=O)c1-c1ccc(C[C@H](NC(=O)NC2CCCCC2)C(=O)O)cc1 [Cpd 3]

>  <Test Target>
human α4β7 integrin (Homo sapiens, UniProt P13612+P26010)

>  <pIC50>
6.51

$$$$
